// provenance: patent US20200017495A1

System: Serratia marcescens (SMA) isolates
assay procedure: MIC of compounds alone and combined with antibacterials, broth microdilution (CLSI)
Assay type: cell-based
recorded conditions: strain SMA UFR142; genotype OXA-48
quantity measured: MIC (µg/mL)
Please give a number only; it is taken to be in µg/mL.

C=CC1=C(C(=O)O)N2C(=O)[C@@H](NC(=O)/C(=N\OCC(=O)O)c3csc(N)n3)[C@H]2SC1 :: 2

Could you now consider this next compound?
// query For the compound shown here, "CC(C)(O/N=C(\C(=O)N[C@@H]1C(=O)N2C(C(=O)[O-])=C(C[n+]3ccccc3)CS[C@H]12)c1csc(N)n1)C(=O)O" , give the reported MIC.
// result 0.5

---

measured on: UniProt:Q8RLA6
Sequence (Q8RLA6 entry or part of it): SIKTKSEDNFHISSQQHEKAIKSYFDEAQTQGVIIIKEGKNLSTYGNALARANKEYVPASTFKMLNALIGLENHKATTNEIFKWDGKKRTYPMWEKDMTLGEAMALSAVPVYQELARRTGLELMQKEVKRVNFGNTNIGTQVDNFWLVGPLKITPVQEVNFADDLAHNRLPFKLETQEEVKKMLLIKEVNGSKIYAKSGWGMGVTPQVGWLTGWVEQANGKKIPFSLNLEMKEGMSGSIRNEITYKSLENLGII
assay procedure: β-lactamase inhibitory activity, IC50 (nitrocefin hydrolysis)
# maps each entry to its IC50
Give your result in µM as a bare value.

O=C1N2CC(c3ncco3)=CC(C2)N1OC(F)(F)C(=O)[O-].[Li+] (stereo not drawn) [AF2] :: 8.3
O=C1N2CC=C(c3cnoc3)C(C2)N1OC(F)(F)C(=O)[O-].[Li+] (stereo not drawn) [AF1] :: 0.12

Pending molecule:
// query Quick check: IC50 of O=C1N2CC(n3cccn3)=CC(C2)N1OC(F)(F)C(=O)[O-].[Li+] (stereo not drawn) [AF3] ?
// result 8.9

---

measured on: SAU PC1 (Staphylococcus aureus)
Sequence (P00807 25-281): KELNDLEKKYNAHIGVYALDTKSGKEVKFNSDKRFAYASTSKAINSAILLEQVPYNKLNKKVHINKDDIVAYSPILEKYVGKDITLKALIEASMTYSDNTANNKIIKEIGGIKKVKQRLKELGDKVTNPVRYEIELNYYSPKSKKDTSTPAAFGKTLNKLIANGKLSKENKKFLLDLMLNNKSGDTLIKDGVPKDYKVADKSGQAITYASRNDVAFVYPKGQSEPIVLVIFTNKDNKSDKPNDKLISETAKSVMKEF
assay procedure: β-lactamase inhibitory activity, IC50 (nitrocefin hydrolysis)
Assay type: biochemical, S. aureus
recorded conditions: SAU PC1; 30 min pre-incubation, nitrocefin 100 μM; read-out: IC50
quantity measured: pIC50
// pIC50 is dimensionless: -log10 of concentration (M)

// query May I ask what pIC50 has been recorded for O=C1N2CC=C(c3cnoc3)C(C2)N1OC(F)(F)C(=O)[O-].[Li+] (stereo not shown) ?
// result 6.25

---

measured on: CTX-M-15 (Escherichia coli)
Sequence (Q9EXV5 entry or part of it): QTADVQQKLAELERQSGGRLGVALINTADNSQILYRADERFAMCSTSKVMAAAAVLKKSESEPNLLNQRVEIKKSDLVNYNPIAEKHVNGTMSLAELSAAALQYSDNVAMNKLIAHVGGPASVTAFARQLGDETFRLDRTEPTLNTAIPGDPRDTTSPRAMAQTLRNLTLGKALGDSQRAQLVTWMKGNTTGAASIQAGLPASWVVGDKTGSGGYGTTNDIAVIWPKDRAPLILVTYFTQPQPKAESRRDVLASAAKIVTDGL
assay procedure: β-lactamase inhibitory activity, IC50 (nitrocefin hydrolysis)
quantity measured: IC50 (nM)
Could you give me the number in nM? Just the number is fine.

// query Which measured IC50 belongs to O=C1N2CC=C(c3cnoc3)C(C2)N1OC(F)(F)C(=O)[O-].[Li+] (stereo not drawn) [AF1] , tested on CTX-M-15 (Escherichia coli)?
// result 2.4

// query Any idea what IC50 came out for O=C1N2CC(c3ncco3)=CC(C2)N1OC(F)(F)C(=O)[O-].[Li+] (stereo not drawn) [AF2] on CTX-M-15 (Escherichia coli)?
// result 1.5

// query Please provide the recorded IC50 for O=C1N2CC(n3cccn3)=CC(C2)N1OC(F)(F)C(=O)[O-].[Li+] (stereo not drawn) [AF3] , tested on CTX-M-15 (Escherichia coli).
// result 0.66

---

System: Proteus mirabilis (PMI) isolates
assay procedure: microbe, parasite or virus in culture
Type: cell-based
recorded conditions: strain PMI UFR124; genotype CTX-M-2
quantity measured: MIC

CO/N=C(\C(=O)N[C@@H]1C(=O)N2C(C(=O)O)=C(COC(N)=O)CS[C@H]12)c1ccco1 :: >256 µg/mL
C=CC1=C(C(=O)O)N2C(=O)[C@@H](NC(=O)/C(=N\OCC(=O)O)c3csc(N)n3)[C@H]2SC1 :: >128 µg/mL
CC1(C)S[C@@H]2[C@H](NC(=O)[C@H](N)c3ccc(O)cc3)C(=O)N2[C@H]1C(=O)O :: >128 µg/mL

Pending compound:
// query Given the entry "CC(C)(O/N=C(\C(=O)N[C@@H]1C(=O)N2C(C(=O)[O-])=C(C[n+]3ccccc3)CS[C@H]12)c1csc(N)n1)C(=O)O" , report its measured MIC.
// result 2 µg/mL

---

Listing of recorded MIC by entry.
Tested on: Serratia marcescens (SMA) isolates
assay procedure: MIC of compounds alone and combined with antibacterials, broth microdilution (CLSI)
Type: cell-based
recorded conditions: strain SMA UFR30; genotype OXA-405
API: value field is a number in µg/mL; no unit string.

CC(C)(O/N=C(\C(=O)N[C@@H]1C(=O)N2C(C(=O)[O-])=C(C[n+]3ccccc3)CS[C@H]12)c1csc(N)n1)C(=O)O :: 8

// query Reported MIC, molecule "C=CC1=C(C(=O)O)N2C(=O)[C@@H](NC(=O)/C(=N\OCC(=O)O)c3csc(N)n3)[C@H]2SC1" : ____
// result 1

---

measured on: SHV-12 (Klebsiella pneumoniae, UniProt P0AD64, E235K/G234S/L31Q)
Sequence (P0AD64 22-286 L31Q/G234S/E235K): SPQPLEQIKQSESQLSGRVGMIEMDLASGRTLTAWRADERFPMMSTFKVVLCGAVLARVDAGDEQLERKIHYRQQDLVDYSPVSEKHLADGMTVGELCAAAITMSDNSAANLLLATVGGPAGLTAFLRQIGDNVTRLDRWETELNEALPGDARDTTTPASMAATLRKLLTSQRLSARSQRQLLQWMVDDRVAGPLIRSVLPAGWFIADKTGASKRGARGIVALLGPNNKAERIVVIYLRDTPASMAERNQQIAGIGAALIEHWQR
assay procedure: β-lactamase inhibitory activity, IC50 (nitrocefin hydrolysis)
Format: biochemical
recorded conditions: SHV-12; 30 min pre-incubation, nitrocefin 100 μM; read-out: IC50
quantity measured: IC50 (nM)
Write it as a number; the unit nM goes unstated.

// query Suppose we examine the compound O=C1N2CC=C(c3cnoc3)C(C2)N1OC(F)(F)C(=O)[O-].[Li+] (stereo not shown) [AF1] ; what IC50 value has been reported?
// result 3.8

---

Test system: Citrobacter koseri (CKR) isolates
assay procedure: MIC of compounds alone and combined with antibacterials, broth microdilution (CLSI)
Type: cell-based
recorded conditions: strain CKO UFR149; genotype OXA-48
quantity measured: MIC

Solved cases (3 shown):
CC(C)(O/N=C(\C(=O)N[C@@H]1C(=O)N2C(C(=O)[O-])=C(C[n+]3ccccc3)CS[C@H]12)c1csc(N)n1)C(=O)O :: >128 µg/mL
C=CC1=C(C(=O)O)N2C(=O)[C@@H](NC(=O)/C(=N\OCC(=O)O)c3csc(N)n3)[C@H]2SC1 :: 0.5 µg/mL
CO/N=C(\C(=O)N[C@@H]1C(=O)N2C(C(=O)O)=C(COC(N)=O)CS[C@H]12)c1ccco1 :: >256 µg/mL

Consider the additional molecule presented here.
// query Form field: reported MIC of "CC1(C)S[C@@H]2[C@H](NC(=O)[C@H](N)c3ccc(O)cc3)C(=O)N2[C@H]1C(=O)O"
// result >128 µg/mL

---

Measured pIC50 by item
measured on: SHV-12 (Klebsiella pneumoniae, UniProt P0AD64, E235K/G234S/L31Q)
assay procedure: β-lactamase inhibitory activity, IC50 (nitrocefin hydrolysis)
Type: biochemical
pIC50 (log units): -log10 of the concentration in mol/L.

// query Requested read-out: pIC50. Entry: O=C1N2CC(c3ncco3)=CC(C2)N1OC(F)(F)C(=O)[O-].[Li+] (centres unmarked)
// result 8.39

// query Recorded pIC50 for O=C1N2CC(n3cccn3)=CC(C2)N1OC(F)(F)C(=O)[O-].[Li+] (centres unmarked) , please?
// result 8.37

---

Test system: Morganella morganii (MMO) isolates
assay procedure: MIC of compounds alone and combined with antibacterials, broth microdilution (CLSI)
Assay type: cell-based
recorded conditions: strain MMO 200321; genotype TEM-1, CTX-M-15, OXA-1
Procedure: Method 2: MIC of Compounds Alone and Combined with Antibacterials Against Bacterial Isolates Compounds of the present invention were assessed against genotyped bacterial strains (Table 3, 4) alone or in combination with an antibacterial (Table 2). […] The MIC of the compounds was defined as the lowest concentration of said compounds that prevented bacterial growth as read by visual inspection. […]
# maps each entry to its MIC

CC1(C)S[C@@H]2[C@H](NC(=O)[C@H](N)c3ccc(O)cc3)C(=O)N2[C@H]1C(=O)O [AMX, Amoxicillin] :: >256 µg/mL
CO/N=C(\C(=O)N[C@@H]1C(=O)N2C(C(=O)O)=C(COC(N)=O)CS[C@H]12)c1ccco1 [FUR, Cefuroxime] :: >256 µg/mL
C=CC1=C(C(=O)O)N2C(=O)[C@@H](NC(=O)/C(=N\OCC(=O)O)c3csc(N)n3)[C@H]2SC1 [FIX, Cefixime] :: >128 µg/mL

// query Fill blank: measured MIC of the compound CC(C)(O/N=C(\C(=O)N[C@@H]1C(=O)N2C(C(=O)[O-])=C(C[n+]3ccccc3)CS[C@H]12)c1csc(N)n1)C(=O)O [CAZ, Ceftazidime] is ____.
// result 16 µg/mL

---

measured on: PAE ampC (Pseudomonas aeruginosa)
Sequence (P24735 27-397): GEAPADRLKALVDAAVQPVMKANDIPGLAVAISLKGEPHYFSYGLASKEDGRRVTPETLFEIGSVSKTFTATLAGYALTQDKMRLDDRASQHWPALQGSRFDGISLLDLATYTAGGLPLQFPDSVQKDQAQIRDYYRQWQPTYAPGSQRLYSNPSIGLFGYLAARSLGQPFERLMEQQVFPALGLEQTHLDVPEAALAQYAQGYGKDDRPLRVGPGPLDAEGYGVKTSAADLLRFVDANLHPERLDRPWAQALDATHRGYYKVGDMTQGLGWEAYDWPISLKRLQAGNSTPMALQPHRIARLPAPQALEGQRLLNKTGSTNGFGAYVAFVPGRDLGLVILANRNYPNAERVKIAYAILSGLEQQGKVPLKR
assay procedure: β-lactamase inhibitory activity, IC50 (nitrocefin hydrolysis)
quantity measured: pIC50
On this scale, pIC50 is minus log10 of a concentration expressed in M (mol/L).

O=C1N2CC(n3cccn3)=CC(C2)N1OC(F)(F)C(=O)[O-].[Li+] (stereo not drawn) :: 7.01
O=C1N2CC(c3ncco3)=CC(C2)N1OC(F)(F)C(=O)[O-].[Li+] (stereo not drawn) :: 6.55

Next, consider the following molecule.
// query # value lookup — system PAE ampC (Pseudomonas aeruginosa), readout pIC50, item O=C1N2CC=C(c3cnoc3)C(C2)N1OC(F)(F)C(=O)[O-].[Li+] (stereo not drawn)
// result 5.35

---

measured on: UniProt:Q2TR58
Sequence (Q2TR58 19-280): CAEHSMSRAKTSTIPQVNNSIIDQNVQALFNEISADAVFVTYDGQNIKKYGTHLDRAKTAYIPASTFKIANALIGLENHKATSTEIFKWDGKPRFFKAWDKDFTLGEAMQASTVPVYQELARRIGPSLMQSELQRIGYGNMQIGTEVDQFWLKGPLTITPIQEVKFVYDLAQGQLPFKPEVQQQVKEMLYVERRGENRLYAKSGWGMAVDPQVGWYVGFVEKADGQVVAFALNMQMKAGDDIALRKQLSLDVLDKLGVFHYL
assay procedure: β-lactamase inhibitory activity, IC50 (nitrocefin hydrolysis)
Format: biochemical
# IC50 per record follows
Field format: number, assumed nM, no unit text.

// worked examples, IC50 included
O=C1N2CC(n3cccn3)=CC(C2)N1OC(F)(F)C(=O)[O-].[Li+] (stereo not drawn) :: 1000
O=C1N2CC(c3ncco3)=CC(C2)N1OC(F)(F)C(=O)[O-].[Li+] (stereo not drawn) :: 580

// query Item under review: O=C1N2CC=C(c3cnoc3)C(C2)N1OC(F)(F)C(=O)[O-].[Li+] (stereo not drawn) . Reported IC50?
// result 15
